// values below are reported pIC50
tgt: p38MAPKγ (MAPK12) (Homo sapiens, UniProt P53778)
Construct: purchased Life Technologies
Sequence (P53778 whole entry): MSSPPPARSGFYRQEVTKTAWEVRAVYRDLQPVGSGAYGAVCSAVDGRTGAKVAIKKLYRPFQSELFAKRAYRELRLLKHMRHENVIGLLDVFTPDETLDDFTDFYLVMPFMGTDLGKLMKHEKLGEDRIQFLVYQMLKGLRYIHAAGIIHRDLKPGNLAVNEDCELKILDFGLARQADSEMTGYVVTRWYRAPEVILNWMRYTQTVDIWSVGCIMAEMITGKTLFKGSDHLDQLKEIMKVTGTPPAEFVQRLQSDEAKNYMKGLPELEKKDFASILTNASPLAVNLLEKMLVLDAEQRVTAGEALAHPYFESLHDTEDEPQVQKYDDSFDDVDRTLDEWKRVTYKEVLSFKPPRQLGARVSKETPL
assay: p38 MAPKγ enzyme inhibition (Z-LYTE FRET)
Type: biochemical
applied conditions: Table 2B, unit inferred; read-out: p38 MAPKγ (Enzyme Profile)
Note on pIC50: it is the negative log10 of concentration, concentration in mol/L.

>>> print(df.to_string())
                                test_smiles                                       tgt  endpoint_value
0  CCN1CCN(C(=O)c2cnc(Nc3cc(COc4ccc(NC(=O)Nc5cc(C(C)(C)C)nn5-c5ccc(C)cc5)c5ccccc45)ccn3)cn2)CC1  p38MAPKγ (MAPK12) (Homo sapiens, UniProt P53778)            6.97
1  COCCN(C)C(=O)c1cnc(Nc2cc(COc3ccc(NC(=O)Nc4cc(C(C)(C)C)nn4-c4ccc(C)cc4)c4ccccc34)ccn2)cn1  p38MAPKγ (MAPK12) (Homo sapiens, UniProt P53778)            6.84
2  CCc1ncc(Nc2cc(COc3ccc(NC(=O)Nc4cc(C(C)(C)C)nn4-c4ccc(C)cc4)c4ccccc34)ccn2)nc1CC  p38MAPKγ (MAPK12) (Homo sapiens, UniProt P53778)            5.96
3  Cc1ccc(-n2nc(C(C)(C)C)cc2NC(=O)Nc2ccc(OCc3ccnc(Nc4cnc(C(=O)NCC5CCN(C)CC5)cn4)c3)c3ccccc23)cc1  p38MAPKγ (MAPK12) (Homo sapiens, UniProt P53778)            7.80
4  Cc1ccc(-n2nc(C(C)(C)C)cc2NC(=O)Nc2ccc(OCc3ccnc(Nc4cnc(C(=O)N5CCS(=O)(=O)CC5)cn4)c3)c3ccccc23)cc1  p38MAPKγ (MAPK12) (Homo sapiens, UniProt P53778)            7.02

Return reported pIC50; argument: COc1ccc(-n2nc(C(C)(C)C)cc2NC(=O)Nc2ccc(OCc3ccnc(Nc4cnc(CO)cn4)c3)c3ccccc23)cc1C
4.99

Return reported pIC50; argument: COCCCc1cncc(Nc2cc(COc3ccc(NC(=O)Nc4cc(C(C)(C)C)nn4-c4ccc(C)cc4)c4ccccc34)ccn2)n1
7.11

Return reported pIC50; argument: COCCN(CCOC)C(=O)c1cnc(Nc2cc(COc3ccc(NC(=O)Nc4cc(C(C)(C)C)nn4-c4cccc(C)c4)c4ccccc34)ccn2)cn1
6.83

Return reported pIC50; argument: Cc1ccc(-n2nc(C(C)(C)C)cc2NC(=O)Nc2ccc(OCc3ccnc(Nc4cnc(CO)cn4)c3)c3ccccc23)cc1C
6.92

Return reported pIC50; argument: COCc1cnc(Nc2cc(COc3ccc(NC(=O)Nc4cc(C(C)(C)C)nn4-c4cccc(F)c4)c4ccccc34)ccn2)cn1
6.60

Return reported pIC50; argument: COc1cc(-n2nc(C(C)(C)C)cc2NC(=O)Nc2ccc(OCc3ccnc(Nc4cnccn4)c3)c3ccccc23)ccn1
6.96

====

tgt: p38MAPKγ (MAPK12) (Homo sapiens)
Construct: purchased Life Technologies
assay: p38 MAPKγ enzyme inhibition (Z-LYTE FRET)
Assay type: biochemical
applied conditions: Table 2B, unit inferred; read-out: p38 MAPKγ (Enzyme Profile)
pIC50: −log10 of the molar value.
pIC50 vs 7: at or above is Condition met, below is Condition not met.

Determine whether this compound has pIC50 no lower than 7: Cc1ccc(-n2nc(C(C)(C)C)cc2NC(=O)Nc2ccc(OCc3ccnc(Nc4cncc(NC5CC5)n4)c3)c3ccccc23)cc1
Condition not met
